Attribution: ChEMBL document CHEMBL4765295

Tested on: PC-3
method: Antiproliferative activity against human PC3 cells assessed as inhibition of cell growth after 72 hrs by MTT assay
Type: functional, cell-based
measurement-setup: PC-3, 72 h
pIC50: −log10 of the molar value.

[
  {
    "compound": "COc1cc(/C=C/C(=O)/C=C(O)/C=C/c2ccc(OC(=O)[C@@H](N)C(C)C)c(OC)c2)ccc1OC(=O)[C@@H](N)C(C)C.Cl.Cl",
    "subject-of-test": "PC-3",
    "pIC50": 4.46
  },
  {
    "compound": "COc1cc(/C=C/C(=O)/C=C(O)/C=C/c2ccc(OC(=O)[C@@H](N)CCSC)c(OC)c2)ccc1OC(=O)[C@@H](N)CCSC.Cl.Cl",
    "subject-of-test": "PC-3",
    "pIC50": 4.37
  },
  {
    "compound": "COc1cc(/C=C/C(=O)/C=C(O)/C=C/c2ccc(OC(=O)CCN)c(OC)c2)ccc1OC(=O)CCN.Cl.Cl",
    "subject-of-test": "PC-3",
    "pIC50": 4.52
  },
  {
    "compound": "COc1cccc2c1C(=O)c1c(O)c3c(c(O)c1C2=O)C[C@@](O)(C(=O)CO)C[C@@H]3O[C@H]1C[C@H](N)[C@H](O)[C@H](C)O1 [DOXORUBICIN]",
    "subject-of-test": "PC-3",
    "pIC50": 4.42
  },
  {
    "compound": "COc1cc(/C=C/C(=O)/C=C(O)/C=C/c2ccc(OC(=O)CN)c(OC)c2)ccc1OC(=O)CN.Cl.Cl",
    "subject-of-test": "PC-3",
    "pIC50": 4.41
  }
]

* * *

System: Peritoneal macrophage
method: Antiinflammatory activity in […] mouse Peritoneal macrophages assessed as reduction in LPS-induced NO production by measuring reduction in stimulation index at 10 uM preincubated for 1 hr followed by LPS stimulation measured after 24 hrs by Griess method (reference value: 27.31 +/- 2.56 uM)
Assay type: functional
measurement-setup: time 25 hrs
parameter: Activity (µM)

[
  {
    "substance-smiles": "COc1cc(/C=C/C(=O)/C=C(O)/C=C/c2ccc(OC(=O)[C@@H](C)N)c(OC)c2)ccc1OC(=O)[C@@H](C)N.Cl.Cl",
    "subject-of-test": "Peritoneal macrophage",
    "endpoint-result": 16.04
  },
  {
    "substance-smiles": "COc1cc(/C=C/C(=O)/C=C(O)/C=C/c2ccc(OC(=O)CCN)c(OC)c2)ccc1OC(=O)CCN.Cl.Cl",
    "subject-of-test": "Peritoneal macrophage",
    "endpoint-result": 15.93
  },
  {
    "substance-smiles": "COc1cc(/C=C/C(=O)/C=C(O)/C=C/c2ccc(OC(=O)[C@H](C)NC(=O)OC(C)(C)C)c(OC)c2)ccc1OC(=O)[C@H](C)NC(=O)OC(C)(C)C",
    "subject-of-test": "Peritoneal macrophage",
    "endpoint-result": 21.3
  },
  {
    "substance-smiles": "COc1cc(/C=C/C(=O)/C=C(O)/C=C/c2ccc(OC(=O)[C@@H](NC(=O)OC(C)(C)C)C(C)C)c(OC)c2)ccc1OC(=O)[C@@H](NC(=O)OC(C)(C)C)C(C)C",
    "subject-of-test": "Peritoneal macrophage",
    "endpoint-result": 19.29
  },
  {
    "substance-smiles": "COc1cc(/C=C/C(=O)/C=C(O)/C=C/c2ccc(OC(=O)CNC(=O)OCc3ccccc3)c(OC)c2)ccc1OC(=O)CNC(=O)OCc1ccccc1",
    "subject-of-test": "Peritoneal macrophage",
    "endpoint-result": 24.55
  },
  {
    "substance-smiles": "COc1cc(/C=C/C(=O)/C=C(O)/C=C/c2ccc(OC(=O)[C@H](CCC(N)=O)NC(=O)OC(C)(C)C)c(OC)c2)ccc1OC(=O)[C@H](CCC(N)=O)NC(=O)OC(C)(C)C",
    "subject-of-test": "Peritoneal macrophage",
    "endpoint-result": 21.22
  }
]

* * *

# Time annotations
Test system: Mus musculus
method: Analgesic activity in albino mouse assessed as forepaw licking/jumping latency time at 10 mg/kg, ip measured after 30 mins by hot plate test (reference value: 5.02 +/- 0.09 sec)
Assay type: functional
measurement-setup: 0.5 h
parameter: Time

[
  {
    "compound": "COc1cc(/C=C/C(=O)CC(=O)/C=C/c2ccc(O)c(OC)c2)ccc1O [CURCUMIN]",
    "endpoint-result": "5.04 s"
  },
  {
    "compound": "COc1cc(/C=C/C(=O)/C=C(O)/C=C/c2ccc(OC(=O)[C@@H](C)N)c(OC)c2)ccc1OC(=O)[C@@H](C)N.Cl.Cl",
    "endpoint-result": "5.3 s"
  },
  {
    "compound": "COc1cc(/C=C/C(=O)/C=C(O)/C=C/c2ccc(OC(=O)CCN)c(OC)c2)ccc1OC(=O)CCN.Cl.Cl",
    "endpoint-result": "5.46 s"
  }
]

* * *

# Activity annotations
Test system: Peritoneal macrophage
method: Antiinflammatory activity in […] mouse Peritoneal macrophages assessed as reduction in LPS-induced NO production by measuring reduction in stimulation index at 10 uM preincubated for 1 hr followed by LPS stimulation measured after 24 hrs by Griess method (reference value: 27.31 +/- 2.56 uM)
Assay type: functional
measurement-setup: time 25 hrs

[
  {
    "compound": "COc1cc(/C=C/C(=O)/C=C(O)/C=C/c2ccc(OC(=O)[C@H](C)NC(=O)OCc3ccccc3)c(OC)c2)ccc1OC(=O)[C@H](C)NC(=O)OCc1ccccc1",
    "subject-of-test": "Peritoneal macrophage",
    "Activity": "24.89 µM"
  },
  {
    "compound": "COc1cc(/C=C/C(=O)/C=C(O)/C=C/c2ccc(OC(=O)[C@H](C)NC(=O)OCC3c4ccccc4-c4ccccc43)c(OC)c2)ccc1OC(=O)[C@H](C)NC(=O)OCC1c2ccccc2-c2ccccc21",
    "subject-of-test": "Peritoneal macrophage",
    "Activity": "21.79 µM"
  },
  {
    "compound": "COc1cc(/C=C/C(=O)/C=C(O)/C=C/c2ccc(OC(=O)[C@@H](CCSC)NC(=O)OCc3ccccc3)c(OC)c2)ccc1OC(=O)[C@@H](CCSC)NC(=O)OCc1ccccc1",
    "subject-of-test": "Peritoneal macrophage",
    "Activity": "16.16 µM"
  },
  {
    "compound": "COc1cc(/C=C/C(=O)/C=C(O)/C=C/c2ccc(OC(=O)C(C)N)c(OC)c2)ccc1OC(=O)C(C)N.Cl.Cl (stereo unspecified)",
    "subject-of-test": "Peritoneal macrophage",
    "Activity": "19.75 µM"
  },
  {
    "compound": "COc1cc(/C=C/C(=O)/C=C(O)/C=C/c2ccc(OC(=O)[C@@H](N)CCSC)c(OC)c2)ccc1OC(=O)[C@@H](N)CCSC.Cl.Cl",
    "subject-of-test": "Peritoneal macrophage",
    "Activity": "16.95 µM"
  },
  {
    "compound": "COc1cc(/C=C/C(=O)/C=C(O)/C=C/c2ccc(OC(=O)C(C)NC(=O)OCc3ccccc3)c(OC)c2)ccc1OC(=O)C(C)NC(=O)OCc1ccccc1 (stereo unspecified)",
    "subject-of-test": "Peritoneal macrophage",
    "Activity": "14.91 µM"
  }
]

* * *

Test system: Rattus norvegicus
method: Anti-inflammatory activity in Wistar rat assessed as inhibition of carrageenan-induced paw edema at 10 mg/kg, ip pretreated for 1 hr followed by carrageenan challenge and measured after 3 hr relative to control (reference value: 0.00 +/-0.1 %)
Format: functional
measurement-setup: time 4 hrs
Note to self: class labels come from recorded inhibition in vivo at 10 mg/kg, ranges listed here: label 0 (below 40%), label 1 (40% to below 50%), label 2 (50% or more)

[
  {
    "compound": "COc1cc(/C=C/C(=O)/C=C(O)/C=C/c2ccc(OC(=O)[C@H](CCSC)NC(=O)OC(C)(C)C)c(OC)c2)ccc1OC(=O)[C@H](CCSC)NC(=O)OC(C)(C)C",
    "subject-of-test": "Rattus norvegicus",
    "class-assignment": "label 1"
  },
  {
    "compound": "CC[C@H](C)[C@H](N)C(=O)Oc1ccc(/C=C/C(=O)/C=C(O)/C=C/c2ccc(OC(=O)[C@@H](N)[C@@H](C)CC)c(OC)c2)cc1OC.Cl.Cl",
    "subject-of-test": "Rattus norvegicus",
    "class-assignment": "label 1"
  },
  {
    "compound": "COc1cc(/C=C/C(=O)/C=C(O)/C=C/c2ccc(OC(=O)C(C)N)c(OC)c2)ccc1OC(=O)C(C)N.Cl.Cl (stereo unspecified)",
    "subject-of-test": "Rattus norvegicus",
    "class-assignment": "label 2"
  },
  {
    "compound": "COc1cc(/C=C/C(=O)/C=C(O)/C=C/c2ccc(OC(=O)[C@@H](C)NC(=O)OCc3ccccc3)c(OC)c2)ccc1OC(=O)[C@@H](C)NC(=O)OCc1ccccc1",
    "subject-of-test": "Rattus norvegicus",
    "class-assignment": "label 2"
  },
  {
    "compound": "COc1cc(/C=C/C(=O)/C=C(O)/C=C/c2ccc(OC(=O)[C@@H](NC(=O)OC(C)(C)C)C(C)C)c(OC)c2)ccc1OC(=O)[C@@H](NC(=O)OC(C)(C)C)C(C)C",
    "subject-of-test": "Rattus norvegicus",
    "class-assignment": "label 0"
  },
  {
    "compound": "COc1cc(/C=C/C(=O)/C=C(O)/C=C/c2ccc(OC(=O)[C@H](C)NC(=O)OCC3c4ccccc4-c4ccccc43)c(OC)c2)ccc1OC(=O)[C@H](C)NC(=O)OCC1c2ccccc2-c2ccccc21",
    "subject-of-test": "Rattus norvegicus",
    "class-assignment": "label 1"
  },
  {
    "compound": "COc1cc(/C=C/C(=O)/C=C(O)/C=C/c2ccc(OC(=O)CNC(=O)OC(C)(C)C)c(OC)c2)ccc1OC(=O)CNC(=O)OC(C)(C)C",
    "subject-of-test": "Rattus norvegicus",
    "class-assignment": "label 1"
  },
  {
    "compound": "COc1cc(/C=C/C(=O)/C=C(O)/C=C/c2ccc(OC(=O)[C@H](CCSC)NC(=O)OCC3c4ccccc4-c4ccccc43)c(OC)c2)ccc1OC(=O)[C@H](CCSC)NC(=O)OCC1c2ccccc2-c2ccccc21",
    "subject-of-test": "Rattus norvegicus",
    "class-assignment": "label 2"
  },
  {
    "compound": "COc1cc(/C=C/C(=O)/C=C(O)/C=C/c2ccc(OC(=O)[C@H](Cc3ccccc3)NC(=O)OCC3c4ccccc4-c4ccccc43)c(OC)c2)ccc1OC(=O)[C@H](Cc1ccccc1)NC(=O)OCC1c2ccccc2-c2ccccc21",
    "subject-of-test": "Rattus norvegicus",
    "class-assignment": "label 2"
  },
  {
    "compound": "COc1cc(/C=C/C(=O)/C=C(O)/C=C/c2ccc(OC(=O)[C@@H](NC(=O)OCc3ccccc3)C(C)C)c(OC)c2)ccc1OC(=O)[C@@H](NC(=O)OCc1ccccc1)C(C)C",
    "subject-of-test": "Rattus norvegicus",
    "class-assignment": "label 0"
  }
]
